Data origin, for the record: ChEMBL document CHEMBL3217536

Each entry below lists one item and its recorded HC50 value.
Assay: Hemolytic activity against human erythrocytes
Type: ADME, cell-based, Erythrocyte
Details: read-out: ED50 (the source's name)
*1 amine or outer side, *2 acyl side, *3 side chain or, on linkers, in order; H or OH if unused. Where a SMILES comes first, the peptide text is derived from it. [ ]: non-standard residue; d: D form. X1 = O=C(/C(=C/c1cccnc1)N[*:1])[*:2]; X2 = O=C(/C(=C/c1ccccc1)N[*:1])[*:2]; Orn = NCCC[C@H](N)C(=O)O
Respond with the bare value in µM.

Solved entries:
Write down HC50 measured for item CC(C)C[C@@H]1NC(=O)[C@H](CCCN)NC(=O)[C@H](C(C)C)NC(=O)[C@@H]2CCCN2C(=O)/C(=C/c2ccccc2)NC(=O)[C@H](CC(C)C)NC(=O)[C@H](CCCN)NC(=O)[C@H](C(C)C)NC(=O)[C@@H]2CCCN2C(=O)/C(=C/c2ccccc2)NC1=O (cyclo(L[X2]PV[Orn]L[X2]PV[Orn]))
5

Write down HC50 measured for item CC(C)C[C@@H]1NC(=O)[C@H](CCCN)NC(=O)[C@H](C(C)C)NC(=O)[C@@H]2CCCN2C(=O)[C@@H](Cc2ccccc2)NC(=O)[C@H](CC(C)C)NC(=O)[C@H](CCCN)NC(=O)[C@H](C(C)C)NC(=O)[C@@H]2CCCN2C(=O)[C@@H](Cc2ccccc2)NC1=O [GRAMICIDIN S] (cyclo(L[dF]PV[Orn]L[dF]PV[Orn]))
5

Write down HC50 measured for item CC(C)C[C@@H]1NC(=O)[C@H](C)NC(=O)[C@H](C(C)C)NC(=O)[C@@H]2CCCN2C(=O)/C(=C/c2cccnc2)NC(=O)[C@H](CC(C)C)NC(=O)[C@H](CCCN)NC(=O)[C@H](C(C)C)NC(=O)[C@@H]2CCCN2C(=O)/C(=C/c2cccnc2)NC1=O (cyclo(AL[X1]PV[Orn]L[X1]PV))
50

For the next question, use this compound.
Write down HC50 measured for item CC(C)C[C@@H]1NC(=O)[C@H](C)NC(=O)[C@H](C(C)C)NC(=O)[C@@H]2CCCN2C(=O)/C(=C/c2cccnc2)NC(=O)[C@H](CC(C)C)NC(=O)[C@H](C)NC(=O)[C@H](C(C)C)NC(=O)[C@@H]2CCCN2C(=O)/C(=C/c2cccnc2)NC1=O (cyclo(AL[X1]PVAL[X1]PV))
50
